# Test system: CCRIS mutagenicity, Ames/micronucleus/aberration tests
# Measurement Notes: CCRIS mutagenicity studies
# Details: Test System: AMES SALMONELLA TYPHIMURIUM; Strain/Indicator: TA100; Metabolic Activation: NONE; Method: SPOT TEST
Active and inactive are the calls of the source. How the calls were made is not given here.
The reply should be one of these categories: active, inactive

Look over these answered cases.
>  <Molecular String>
COc1ccccc1NCSC

>  <Class>
active

$$$$
>  <Molecular String>
COc1c2occc2cc2ccc(=O)oc12

>  <Class>
inactive

$$$$
>  <Molecular String>
CSCNc1ccccc1

>  <Class>
active

$$$$

Read the next record carefully.
Task item: What is the recorded call for this compound in the test? C=C(C#N)C(=O)OC
Reply: active

----------
# Test system: CCRIS mutagenicity, Ames/micronucleus/aberration tests
# Measurement Notes: CCRIS mutagenicity studies
# Details: Test System: AMES SALMONELLA TYPHIMURIUM; Strain/Indicator: TA100; Metabolic Activation: RAT, LIVER, S-9, AROCLOR 1254; Method: STANDARD PLATE
# From the text: The CCRIS database contains chemical records with carcinogenicity, mutagenicity, tumor promotion, and tumor inhibition test results. It was developed by the National Cancer Institute (NCI). Data are derived from studies cited in primary journals, current awareness tools, NCI reports, and other sources. Test results have been reviewed by experts in carcinogenesis and mutagenesis. CCRIS provides historical information from the years 1985 - 2011. It is no longer updated. […]
Active and inactive are the calls of the source. No rule for the calls is given here.
The reply should be one of these categories: active, inactive

Look over these answered cases.
>  <Compound>
C=CC(=O)OCC(C)(C)COC(=O)C=C

>  <Class>
inactive

$$$$
>  <Compound>
NOS(=O)(=O)O

>  <Class>
inactive

$$$$
>  <Compound>
CC1=CC(=C(C#N)C#N)C=C(C=Cc2ccc(N(C)C)cc2)O1

>  <Class>
active

$$$$
>  <Compound>
Cn1sc(Cl)cc1=O (tested in a mixture with another compound)

>  <Class>
active

$$$$

Task item: What is the recorded call for this compound in the test? CC1(O)CC2CCC1(C)C2(C)C (stereo unspecified)
Reply: inactive

Task item: What is the recorded call for this compound in the test? C[C@H](CCC(=O)O)[C@H]1CC[C@H]2[C@@H]3CC[C@@H]4C[C@H](O)CC[C@]4(C)[C@H]3C[C@H](O)[C@]12C
Reply: inactive

----------
# Tested on: CCRIS mutagenicity, Ames/micronucleus/aberration tests
# Measurement Notes: CCRIS mutagenicity studies
# Details: Test System: AMES SALMONELLA TYPHIMURIUM; Strain/Indicator: TA97; Metabolic Activation: NONE; Method: PREINCUBATION
Calls of active or inactive are those of the source. No rule for the calls is given here.
The reply should be one of these categories: active, inactive

Look over these answered cases.
>  <Compound>
Oc1ccccc1

>  <Class>
inactive

$$$$
>  <Compound>
Oc1cccc2cccnc12

>  <Class>
inactive

$$$$
>  <Compound>
CCCCCCCCC1CO1 (stereo not drawn)

>  <Class>
inactive

$$$$

Task item: What is the recorded call for this compound in the test? Oc1cc(Cl)c(Cl)c(Cl)c1
Reply: inactive

Task item: What is the recorded call for this compound in the test? [K+]
Reply: inactive

Task item: What is the recorded call for this compound in the test? NC(N)=S
Reply: inactive

----------
# System: CCRIS mutagenicity, Ames/micronucleus/aberration tests
# Measurement Notes: CCRIS mutagenicity studies
# Details: Test System: E.COLI; Strain/Indicator: WP2UVRA; Metabolic Activation: RAT LIVER S-9, PHENOBARBITAL AND BETA-NAPHTHOFLAVONE; Method: PREINCUBATION
Activity calls are given as the source filed them. No rule for the calls is given here.
The reply should be one of these categories: active, inactive

Task item: What is the recorded call for this compound in the test? Cc1ccc(N)cc1
Reply: inactive

Task item: What is the recorded call for this compound in the test? Cc1ccc(Cl)cc1
Reply: inactive

Task item: What is the recorded call for this compound in the test? O=C1C(Cl)=C(Cl)C(=O)c2ccccc21
Reply: inactive

Task item: What is the recorded call for this compound in the test? CCOC(=O)CC(C)=O
Reply: inactive

Task item: What is the recorded call for this compound in the test? CCOCCOC(C)=O
Reply: inactive

----------
# Test system: CCRIS mutagenicity, Ames/micronucleus/aberration tests
# Measurement Notes: CCRIS mutagenicity studies
# Details: Test System: AMES SALMONELLA TYPHIMURIUM; Strain/Indicator: TA97A; Metabolic Activation: NONE; Method: STANDARD PLATE
Calls of active or inactive are those of the source. How the calls were made is not given here.
The reply should be one of these categories: 1 for active, -1 for inactive

Look over these answered cases.
>  <Molecule>
NCCc1c[nH]c2ccccc12

>  <Class>
-1

$$$$
>  <Molecule>
Cc1cc(=O)n(-c2ccccc2)n1C

>  <Class>
-1

$$$$
>  <Molecule>
Cc1ccc(C)c(C)c1C

>  <Class>
-1

$$$$

Task item: What is the recorded call for this molecule in the test? C=CC(=C)CCC=C(C)C
Reply: -1

Task item: What is the recorded call for this molecule in the test? [Cl][Rh-2]([Cl])([Cl])([Cl])[Cl]
Reply: -1

----------
# Tested on: CCRIS mutagenicity, Ames/micronucleus/aberration tests
# Measurement Notes: CCRIS mutagenicity studies
# Details: Test System: AMES SALMONELLA TYPHIMURIUM; Strain/Indicator: TA98; Metabolic Activation: RAT, LIVER, S-9, AROCLOR 1254 (30%); Method: PREINCUBATION
Calls of active or inactive are those of the source. The rule behind the calls is not given here.
The reply should be one of these categories: Y = active, N = inactive

>  <Compound>
N#CCc1ccccc1

>  <Class>
N

$$$$
>  <Compound>
CCCCC(CC)CNCC(CC)CCCC (centres undefined)

>  <Class>
N

$$$$
>  <Compound>
N[C@@H](Cc1ccc(N(CCCl)CCCl)cc1)C(=O)O

>  <Class>
N

$$$$
>  <Compound>
Nc1c(Cl)cc([N+](=O)[O-])cc1Cl

>  <Class>
Y

$$$$
>  <Compound>
CCC(C)COC(=O)/C=C/c1ccc(N=Cc2ccc(OC)cc2)cc1 (centres undefined)

>  <Class>
Y

$$$$
>  <Compound>
O=[N+]([O-])c1ccc2c(c1)Cc1cccc([N+](=O)[O-])c1-2

>  <Class>
Y

$$$$
>  <Compound>
Cc1cccc(C#N)c1

>  <Class>
N

$$$$
>  <Compound>
Nc1ccc(N=Nc2ccccc2)cc1

>  <Class>
Y

$$$$
>  <Compound>
CC(Cl)Cl

>  <Class>
N

$$$$
>  <Compound>
CCN(C(=O)N(CC)c1ccccc1)c1ccccc1

>  <Class>
N

$$$$

Task item: What is the recorded call for this compound in the test? CC(C)[N+](C)(CCOC(=O)C1c2ccccc2Oc2ccccc21)C(C)C
Reply: N

Task item: What is the recorded call for this compound in the test? C=CC(C)C#N (centres undefined)
Reply: N

Task item: What is the recorded call for this compound in the test? OC[P+](CO)(CO)CO
Reply: N

Task item: What is the recorded call for this compound in the test? CCCCCCCCCCCC(=O)O
Reply: N

----------
# System: CCRIS mutagenicity, Ames/micronucleus/aberration tests
# Measurement Notes: CCRIS mutagenicity studies
# Details: Test System: AMES SALMONELLA TYPHIMURIUM; Strain/Indicator: TA104; Metabolic Activation: NONE; Method: PREINCUBATION
Calls of active or inactive are those of the source. No rule for the calls is given here.
The reply should be one of these categories: 1 (active), 0 (inactive)

Look over these answered cases.
>  <Compound>
CN

>  <Assayed System>
CCRIS mutagenicity, Ames/micronucleus/aberration tests

>  <Class>
0

$$$$
>  <Compound>
CCCC(=O)O

>  <Assayed System>
CCRIS mutagenicity, Ames/micronucleus/aberration tests

>  <Class>
0

$$$$

Task item: What is the recorded call for this compound in the test? O=C1C(Cl)=C(Cl)C(=O)c2ccccc21
Reply: 1

Task item: What is the recorded call for this compound in the test? CCN(CC)c1ccccc1
Reply: 0

Task item: What is the recorded call for this compound in the test? O=C1C=CC(=O)C(Cl)=C1
Reply: 0

Task item: What is the recorded call for this compound in the test? O=C(O)c1ccc2c(c1)C(=O)OC2=O
Reply: 0

Task item: What is the recorded call for this compound in the test? CC1=CC(=O)C=CC1=O
Reply: 0

Task item: What is the recorded call for this compound in the test? O=C(Cl)C(Cl)c1ccccc1 (configuration not stated)
Reply: 1

Task item: What is the recorded call for this compound in the test? Oc1ccccc1
Reply: 0

----------
# Test system: CCRIS mutagenicity, Ames/micronucleus/aberration tests
# Measurement Notes: CCRIS mutagenicity studies
# Details: Test System: AMES SALMONELLA TYPHIMURIUM; Strain/Indicator: TA97; Metabolic Activation: HAMSTER, LIVER, S-9, AROCLOR 1254 (10%); Method: PREINCUBATION
# Excerpt: The CCRIS database contains chemical records with carcinogenicity, mutagenicity, tumor promotion, and tumor inhibition test results. It was developed by the National Cancer Institute (NCI). Data are derived from studies cited in primary journals, current awareness tools, NCI reports, and other sources. Test results have been reviewed by experts in carcinogenesis and mutagenesis. CCRIS provides historical information from the years 1985 - 2011. It is no longer updated. […]
The source made the active and inactive calls. No rule for the calls is given here.
The reply should be one of these categories: t = active, f = inactive

Look over these answered cases.
>  <Compound>
Cc1ccc(N)cc1O

>  <Class>
t

$$$$
>  <Compound>
FC(F)(F)c1cccc(Cl)c1

>  <Class>
f

$$$$
>  <Compound>
Nc1ccc(Sc2ccc(N)cc2)cc1

>  <Class>
t

$$$$

Task item: What is the recorded call for this compound in the test? C1=C\CC/C=C\CC/1.C1=C\CC/C=C\CC/1.[Ni]
Reply: f

Task item: What is the recorded call for this compound in the test? COc1ccc(C(=O)/C(Br)=C\C(=O)O)cc1
Reply: t

Task item: What is the recorded call for this compound in the test? Oc1ccc2ccccc2c1N=Nc1ccccc1
Reply: f
